system: K562; experiment: Antiproliferative activity against human K562 cells assessed as growth inhibition incubated for 5 days by CellTiter-Glo reagent based assay; format: functional; settings: K562, 120 h, time 5 day

STRUCTURE: COc1cc(Cn2cnc3c(-c4ccc(F)cc4C)cc(Cn4ccn(C)c4=N)cc3c2=O)cc(OC)c1
OP: >
GI50 (µM): 28

STRUCTURE: COc1cnc2cccc(N3CCOc4c(cc(Cn5ccnc5)cc4-c4cn(C)nc4C(F)(F)F)C3=O)c2c1
OP: >
GI50 (µM): 23

STRUCTURE: COc1cc(CNC(=O)c2cc(Cn3ccn(C)c3=N)cc(-c3ccc(F)cc3C)c2)cc(OC)c1
OP: =
GI50 (µM): 15

STRUCTURE: COc1cc(CN2CC(=O)Nc3c(cc(Cn4ccn(C)c4=N)cc3-c3ccc(F)cc3C)C2=O)cc(OC)c1
OP: >
GI50 (µM): 30

STRUCTURE: COc1cc(CN2COc3c(cc(Cn4ccn(C)c4=N)cc3-c3ccc(F)cc3C)C2=O)cc(OC)c1
OP: =
GI50 (µM): 9

STRUCTURE: CCc1cc(C(=O)NC)c2nccc(N3CCc4c(cc(Cn5ccnc5)cc4-c4cn(C)nc4C(F)(F)F)C3=O)c2c1
OP: =
GI50 (µM): 2.5

STRUCTURE: COc1cc(CN2Cc3c(cc(Cn4ccn(C)c4=N)cc3-c3ccc(F)cc3C)C2=O)cc(OC)c1
OP: =
GI50 (µM): 19

STRUCTURE: COc1cc(CN2CCCc3c(cc(Cn4ccn(C)c4=N)cc3-c3ccc(F)cc3C)C2=O)cc(OC)c1
OP: >
GI50 (µM): 23
